Recorded values, source PubChem BioAssay AID2060617.

Tested on: 485368-065-R4-J2-PDC spheroids with HUVEC/MSC, viability
Assay: Anticancer human tumor 485368-065-R4-J2-PDC patient-derived pancreatic carcinoma cell line growth inhibition [CLK]
Settings: second compound 0.0316 µM; first compound 0.0316 µM; stronger effect = lower value
measurement-name: viability, T/C (%)
Value expressed in %; do not type the unit.

Example compounds with recorded viability, T/C:
[[record]]
compound = "C=CC(=O)N1CCN(c2nc(=O)n(-c3c(C)ccnc3C(C)C)c3nc(-c4c(O)cccc4F)c(F)cc23)C(C)C1 (centres undefined) + CN1CCN(c2cc(C(=O)Nc3cc4cc(-c5cnn(C)c5)ccc4cn3)ccn2)CC1"
readout_number = 107

[[record]]
compound = "CCN1CCN(Cc2ccc(Nc3ncc(F)c(-c4cc(F)c5nc(C)n(C(C)C)c5c4)n3)nc2)CC1 + CN1CCN(c2cc(C(=O)Nc3cc4cc(-c5cnn(C)c5)ccc4cn3)ccn2)CC1"
readout_number = 110

[[record]]
compound = "Nc1ccn(C2OC(CO)C(O)C2(F)F)c(=O)n1 (centres undefined) + CN1CCN(c2cc(C(=O)Nc3cc4cc(-c5cnn(C)c5)ccc4cn3)ccn2)CC1"
readout_number = 48.5

[[record]]
compound = "O=C(c1cc(Cc2n[nH]c(=O)c3ccccc23)ccc1F)N1CCN(C(=O)C2CC2)CC1 + CN1CCN(c2cc(C(=O)Nc3cc4cc(-c5cnn(C)c5)ccc4cn3)ccn2)CC1"
readout_number = 92.6


Inquiry: Jot down viability, T/C (485368-065-R4-J2-PDC spheroids with HUVEC/MSC, viability) of COc1ccc([C@@H](O)c2cc(-c3ncnc4cc(N5CCOCC5)ccc34)c(F)cc2Cl)nn1 + CN1CCN(c2cc(C(=O)Nc3cc4cc(-c5cnn(C)c5)ccc4cn3)ccn2)CC1 .
Reply text: 106

Inquiry: Jot down viability, T/C (485368-065-R4-J2-PDC spheroids with HUVEC/MSC, viability) of COC1C=CCC(C)C(C)S(=O)(=O)NC(=O)c2ccc3c(c2)N(CC2CCC21)CC1(CCCc2cc(Cl)ccc21)CO3 (centres undefined) + CNC(=O)c1ccc(Nc2nc(OC3CCCC3)c3c(-c4ccc5nc(C)oc5c4)c[nH]c3n2)c(OC)c1 .
Reply text: 88.7

Inquiry: Jot down viability, T/C (485368-065-R4-J2-PDC spheroids with HUVEC/MSC, viability) of CC(Nc1ccc2c(c1)OCCn1cc(N3C(=O)OCC3C(F)F)nc1-2)C(N)=O (centres undefined) + CNC(=O)c1ccc(Nc2nc(OC3CCCC3)c3c(-c4ccc5nc(C)oc5c4)c[nH]c3n2)c(OC)c1 .
Reply text: 93.5

Inquiry: Jot down viability, T/C (485368-065-R4-J2-PDC spheroids with HUVEC/MSC, viability) of COc1c(OCCCN2CCOCC2)ccc2c3n(c(=NC(=O)c4cnc(N)nc4)nc12)CCN3 + CNC(=O)c1ccc(Nc2nc(OC3CCCC3)c3c(-c4ccc5nc(C)oc5c4)c[nH]c3n2)c(OC)c1 .
Reply text: 111

Inquiry: Jot down viability, T/C (485368-065-R4-J2-PDC spheroids with HUVEC/MSC, viability) of C#Cc1c(F)ccc2cc(O)cc(-c3ncc4c(N5CC6CCC(C5)N6)nc(OCC56CCCN5CC(F)C6)nc4c3F)c12 (centres undefined) + CN1CCN(c2cc(C(=O)Nc3cc4cc(-c5cnn(C)c5)ccc4cn3)ccn2)CC1 .
Reply text: 94.6

Inquiry: Jot down viability, T/C (485368-065-R4-J2-PDC spheroids with HUVEC/MSC, viability) of O=C(c1cc(Cc2n[nH]c(=O)c3ccccc23)ccc1F)N1CCN(C(=O)C2CC2)CC1 + CNC(=O)c1ccc(Nc2nc(OC3CCCC3)c3c(-c4ccc5nc(C)oc5c4)c[nH]c3n2)c(OC)c1 .
Reply text: 88

Inquiry: Jot down viability, T/C (485368-065-R4-J2-PDC spheroids with HUVEC/MSC, viability) of O=c1[nH]cc(F)c(=O)[nH]1 + CNC(=O)c1ccc(Nc2nc(OC3CCCC3)c3c(-c4ccc5nc(C)oc5c4)c[nH]c3n2)c(OC)c1 .
Reply text: 82

====

System: 485368-065-R4-J2-PDC spheroids with HUVEC/MSC, viability
Experiment: Anticancer human tumor 485368-065-R4-J2-PDC cell line growth inhibition [CLK];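 further: spheroids exposed to compounds for seven days; 100% = DMSO vehicle control wells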
Conditions: second compound 10 µM; first compound 10 µM; stronger effect = lower value
Listed compounds paired with reported viability, T/C

[[record]]
compound = "CC(=O)O[C@H]1C(=O)[C@@]2(C)[C@H]([C@H](OC(=O)c3ccccc3)[C@]3(O)C[C@H](OC(=O)[C@H](O)[C@@H](NC(=O)c4ccccc4)c4ccccc4)C(C)=C1C3(C)C)[C@]1(OC(C)=O)CO[C@@H]1C[C@@H]2O + CNC(=O)c1ccc(Nc2nc(OC3CCCC3)c3c(-c4ccc5nc(C)oc5c4)c[nH]c3n2)c(OC)c1"
measured_target = "485368-065-R4-J2-PDC spheroids with HUVEC/MSC, viability"
measurement_name = "viability, T/C"
result = "95.4%"


Could you now consider this next compound?
Inquiry: Jot down viability, T/C (485368-065-R4-J2-PDC spheroids with HUVEC/MSC, viability) of COc1ccc([C@@H](O)c2cc(-c3ncnc4cc(N5CCOCC5)ccc34)c(F)cc2Cl)nn1 + CN1CCN(c2cc(C(=O)Nc3cc4cc(-c5cnn(C)c5)ccc4cn3)ccn2)CC1 .
Reply text: 3.09%

====

Tested on: 485368-065-R4-J2-PDC spheroids with HUVEC/MSC, viability
Assay: Anticancer human tumor 485368-065-R4-J2-PDC cell line growth inhibition [CLK];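 further: spheroids exposed to compounds for seven days; 100% = DMSO vehicle control wells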
Conditions: second compound 3.16 µM; first compound 0.1 µM; stronger effect = lower value
measurement-name: viability, T/C (%)
Value expressed in %; do not type the unit.

[[record]]
molecule = "CCCS(=O)(=O)Nc1ccc(F)c(C(=O)c2c[nH]c3ncc(-c4ccc(Cl)cc4)cc23)c1F + CN1CCN(c2cc(C(=O)Nc3cc4cc(-c5cnn(C)c5)ccc4cn3)ccn2)CC1"
readout_number = 3.77

[[record]]
molecule = "Nc1ccn(C2OC(CO)C(O)C2(F)F)c(=O)n1 (stereo not drawn) + CN1CCN(c2cc(C(=O)Nc3cc4cc(-c5cnn(C)c5)ccc4cn3)ccn2)CC1"
readout_number = 1.43


Could you now consider this next molecule?
Inquiry: Identify viability, T/C associated with the molecule O=C(c1cc(Cc2n[nH]c(=O)c3ccccc23)ccc1F)N1CCN(C(=O)C2CC2)CC1 + CN1CCN(c2cc(C(=O)Nc3cc4cc(-c5cnn(C)c5)ccc4cn3)ccn2)CC1
Reply text: 1.3

====

System: 485368-065-R4-J2-PDC spheroids with HUVEC/MSC, viability
Test: Anticancer human tumor 485368-065-R4-J2-PDC cell line growth inhibition [CLK];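 further: spheroids exposed to compounds for seven days; 100% = DMSO vehicle control wells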
Conditions: second compound 10 µM; first compound 0.1 µM; stronger effect = lower value
Listed compounds paired with reported viability, T/C
Value expressed in %; do not type the unit.

[[record]]
compound = "COc1c(OCCCN2CCOCC2)ccc2c3n(c(=NC(=O)c4cnc(N)nc4)nc12)CCN3 + CN1CCN(c2cc(C(=O)Nc3cc4cc(-c5cnn(C)c5)ccc4cn3)ccn2)CC1"
measurement_name = "viability, T/C"
units_symbol = "%"
readout_number = 3.27

[[record]]
compound = "CC(Nc1ccc2c(c1)OCCn1cc(N3C(=O)OCC3C(F)F)nc1-2)C(N)=O (stereo not given) + CN1CCN(c2cc(C(=O)Nc3cc4cc(-c5cnn(C)c5)ccc4cn3)ccn2)CC1"
measurement_name = "viability, T/C"
units_symbol = "%"
readout_number = 2.13

[[record]]
compound = "CCN1CCN(Cc2ccc(Nc3ncc(F)c(-c4cc(F)c5nc(C)n(C(C)C)c5c4)n3)nc2)CC1 + CNC(=O)c1ccc(Nc2nc(OC3CCCC3)c3c(-c4ccc5nc(C)oc5c4)c[nH]c3n2)c(OC)c1"
measurement_name = "viability, T/C"
units_symbol = "%"
readout_number = 60.7


Inquiry: Identify viability, T/C associated with the compound CC1COCCN1c1cc(C2(S(C)(=N)=O)CC2)nc(-c2ccnc3[nH]ccc23)n1 (stereo not given) + CNC(=O)c1ccc(Nc2nc(OC3CCCC3)c3c(-c4ccc5nc(C)oc5c4)c[nH]c3n2)c(OC)c1
Reply text: 70.6

====

System: 485368-065-R4-J2-PDC spheroids with HUVEC/MSC, viability
Assay: Anticancer human tumor 485368-065-R4-J2-PDC cell line growth inhibition [CLK]; active = viability on the fitted dose curve at most 10% of control; inactive = the rest;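 further: spheroids exposed to compounds for seven days; 100% = DMSO vehicle control wells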
Settings: second compound 10 µM; first compound 3.16 µM
Can you answer with just one of these options? yes (1) (active), no (0) (inactive)

[[record]]
compound = "Nc1ccn(C2OC(CO)C(O)C2(F)F)c(=O)n1 (stereo not given) + CNC(=O)c1ccc(Nc2nc(OC3CCCC3)c3c(-c4ccc5nc(C)oc5c4)c[nH]c3n2)c(OC)c1"
category = "no (0)"


Inquiry: Record lookup: outcome of this test for CC1COCCN1c1cc(C2(S(C)(=N)=O)CC2)nc(-c2ccnc3[nH]ccc23)n1 (stereo not given) + CNC(=O)c1ccc(Nc2nc(OC3CCCC3)c3c(-c4ccc5nc(C)oc5c4)c[nH]c3n2)c(OC)c1 ?
Reply text: no (0)

Inquiry: Record lookup: outcome of this test for Nc1ccccc1NC(=O)c1ccc(CNC(=O)OCc2cccnc2)cc1 + CNC(=O)c1ccc(Nc2nc(OC3CCCC3)c3c(-c4ccc5nc(C)oc5c4)c[nH]c3n2)c(OC)c1 ?
Reply text: no (0)

Inquiry: Record lookup: outcome of this test for C=CC(=O)N1CCN(c2nc(=O)n(-c3c(C)ccnc3C(C)C)c3nc(-c4c(O)cccc4F)c(F)cc23)C(C)C1 (stereo not given) + CN1CCN(c2cc(C(=O)Nc3cc4cc(-c5cnn(C)c5)ccc4cn3)ccn2)CC1 ?
Reply text: yes (1)

Inquiry: Record lookup: outcome of this test for C=CC(=O)N1CCN(c2nc(=O)n(-c3c(C)ccnc3C(C)C)c3nc(-c4c(O)cccc4F)c(F)cc23)C(C)C1 (stereo not given) + CNC(=O)c1ccc(Nc2nc(OC3CCCC3)c3c(-c4ccc5nc(C)oc5c4)c[nH]c3n2)c(OC)c1 ?
Reply text: no (0)
